// data source = patent US20230263822A1

ASSAY TEXT: Body and organ weights of cynomolgus monkeys (Example 45)
Format: in vivo
PROTOCOL CONDITIONS: day 78; escalating dose regimen
The substances listed here are annotated with their body weights.
Just the number in g, nothing appended.

SUBSTANCE: ISIS 417002: MOE gapmer, nucleobases 1275 to 1318 of SEQ ID NO: 1 (Table 8) (antisense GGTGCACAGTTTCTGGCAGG; MOE gapmer, wing and gap sizes not given here)
MEAS VALUE: 2570

SUBSTANCE: ISIS 416858: MOE gapmer, nucleobases 1275 to 1318 of SEQ ID NO: 1 (Table 8) (antisense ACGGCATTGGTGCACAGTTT; MOE gapmer, wing and gap sizes not given here)
MEAS VALUE: 2713

SUBSTANCE: ISIS 416838: MOE gapmer, nucleobases 1018 to 1042 of SEQ ID NO: 1 (Table 6) (antisense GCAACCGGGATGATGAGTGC; MOE gapmer, wing and gap sizes not given here)
MEAS VALUE: 2766

Quick one: body weights for ISIS 416864: MOE gapmer, nucleobases 1275 to 1318 of SEQ ID NO: 1 (Table 8) (antisense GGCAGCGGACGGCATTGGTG; MOE gapmer, wing and gap sizes not given here) ?
2822

Quick one: body weights for ISIS 416850: MOE gapmer, nucleobases 1275 to 1318 of SEQ ID NO: 1 (Table 8) (antisense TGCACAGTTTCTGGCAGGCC; MOE gapmer, wing and gap sizes not given here) ?
2660
